Where do the numbers come from? From ChEMBL document CHEMBL1125927.

Test: physchem
Conditions: octanol/water, pH 7.4
Description: Partition coefficient (logD7.4)
attributeMeasured: logD

Query block: Reported logD for C[S+]([O-])CCNC(=O)c1cc2cc(S(N)(=O)=O)sc2s1 (stereo not given) : what is it?
Result block: -0.155

Query block: // returns reported logD for input `COCCNCc1cc2cc(S(N)(=O)=O)sc2s1.Cl`
Result block: 0.324

Query block: State the recorded logD for this entry: C[S+]([O-])CCNCc1cc2cc(S(N)(=O)=O)sc2s1.Cl (stereo not given)
Result block: -0.444

[a] CNCc1cc2cc(S(N)(=O)=O)sc2s1.Cl
[b] CC(C)(C)NCc1cc2cc(S(N)(=O)=O)sc2s1
[c] CC(C=O)N(Cc1cc2cc(S(N)(=O)=O)sc2s1)C(C)C=O.Cl (stereo not given)
[d] COCCNCc1cc2sc(S(N)(=O)=O)cc2s1.Cl
[e] COCCCNCc1cc2cc(S(N)(=O)=O)sc2s1.Cl
Query block: Rank entries according to their logD, from the largest number down. The labels, placed in the requested order, form the answer.
Result block: c, d, e, b, a

[1] CN(C)CCNC(=O)c1cc2cc(S(N)(=O)=O)sc2s1.Cl
[2] NS(=O)(=O)c1cc2cc(CNCCO)sc2s1
[3] COCCN(CCOC)Cc1cc2sc(S(N)(=O)=O)cc2s1.Cl
[4] CS(=O)(=O)CCNCc1cc2cc(S(N)(=O)=O)sc2s1.Cl
[5] Cl.NS(=O)(=O)c1cc2cc(CN(CCO)CCO)sc2s1
Query block: Ascending by logD, please. Give the labels in the order specified.
Result block: 2, 1, 4, 5, 3
(2: -0.721, 1: -0.398, 4: -0.26, 5: 0.23, 3: 1.56)

====

Consider compounds characterized by their pKi with Carbonic anhydrase 2 (Homo sapiens, UniProt P00918).
pKi: −log10 of the molar value.
attributeMeasured: pKi

Solved cases below.
Query block: Lookup: pKi / Carbonic anhydrase 2 (Homo sapiens, UniProt P00918) / `COCCOCCN(CCOCCOC)Cc1cc2cc(S(N)(=O)=O)sc2s1.Cl`
Result block: 8.56

Query block: Form entry - test system: Carbonic anhydrase 2 (Homo sapiens, UniProt P00918); read-out: pKi; compound: `CNCc1cc2cc(S(N)(=O)=O)sc2s1.Cl`
Result block: 7.68

[a] CC(C=O)N(Cc1cc2cc(S(N)(=O)=O)sc2s1)C(C)C=O.Cl (centres undefined)
[b] CS(=O)(=O)CCNCc1cc2cc(S(N)(=O)=O)sc2s1.Cl
Query block: Look at a and b . Which one has the lower recorded pKi number? Field: selected label. Fill in the label of the entry you choose.
Result block: b
(b: 8.32, a: 8.83)

====

Carbonic anhydrase 2 (Homo sapiens): reported Ki for various compounds.
attributeMeasured: Ki (nM)

Some solved entries appear below for comparison.
Query block: Quick one: Ki for `COCCOCCN(CCOC)Cc1cc2cc(S(N)(=O)=O)sc2s1.Cl` ?
Result block: 1.58

Query block: Item under review: `CN(C)CCNC(=O)c1cc2cc(S(N)(=O)=O)sc2s1.Cl` . Reported Ki?
Result block: 11

Query block: Given the entry `Cl.NS(=O)(=O)c1cc2cc(CN3CCOCC3)sc2s1` , report its measured Ki.
Result block: 1.1

Query block: # lookup: Ki of `Cl.NS(=O)(=O)c1cc2cc(C(=O)NCCN3CCOCC3)sc2s1`
Result block: 6.38

Query block: Give the measured Ki of COCCOCCNC(C)c1cc2cc(S(N)(=O)=O)sc2s1.Cl (stereo not given) .
Result block: 3.05

[A] COCCN(CCOC)Cc1cc2sc(S(N)(=O)=O)cc2s1.Cl
[B] Cl.NS(=O)(=O)c1cc2cc(CN(CCO)CCO)sc2s1
[C] CC(C)CNCc1cc2cc(S(N)(=O)=O)sc2s1
[D] COCCOCCN(CCOC)C(C)c1cc2cc(S(N)(=O)=O)sc2s1 (stereo not given)
[E] CNCc1cc2sc(S(N)(=O)=O)cc2s1.Cl
Query block: Sort (5 compounds) by Ki: min first. Put the labels in the requested order and list them out.
Result block: A, D, B, C, E
